Assay: AUC (0 to 360 mins) in hamster at 10 mg/kg
Type: ADME, organism-based
Design: time < 6 hr, dose 10 mg/kg
Conditions: cricetinae, plasma
Assignment: determine reported AUC(0-t) at 6 h for the given compounds.
Report only the number, with the unit µg·h/mL understood.

// AUC(0-t) at 6 h lookup, compound = COc1cccc(C2(C(=O)[N-]S(=O)(=O)Oc3c(C(C)C)cccc3C(C)C)CCN(c3ccccc3OC)CC2)c1.[Na+] , result: 1.16

Consider COc1cccc(C2(C(=O)NS(=O)(=O)Oc3c(C(C)C)cccc3C(C)C)CCN(c3ccccc3OC)CC2)c1.Cl . Its measured AUC(0-t) at 6 h is 0.69

Sample COc1cccc(C2(C(=O)[N-]S(=O)(=O)Oc3c(C(C)C)cccc3C(C)C)CCN(c3ncccn3)CC2)c1.[Na+] ; AUC(0-t) at 6 h observed: 1.09
